SYSTEM TESTED: ΔF508-CFTR (Homo sapiens, UniProt P13569, DEL508-508)
Construct: host or cells: CFBE41o-, doxycycline-inducible
Sequence (P13569 with tags, fused parts or gaps DEL508-508): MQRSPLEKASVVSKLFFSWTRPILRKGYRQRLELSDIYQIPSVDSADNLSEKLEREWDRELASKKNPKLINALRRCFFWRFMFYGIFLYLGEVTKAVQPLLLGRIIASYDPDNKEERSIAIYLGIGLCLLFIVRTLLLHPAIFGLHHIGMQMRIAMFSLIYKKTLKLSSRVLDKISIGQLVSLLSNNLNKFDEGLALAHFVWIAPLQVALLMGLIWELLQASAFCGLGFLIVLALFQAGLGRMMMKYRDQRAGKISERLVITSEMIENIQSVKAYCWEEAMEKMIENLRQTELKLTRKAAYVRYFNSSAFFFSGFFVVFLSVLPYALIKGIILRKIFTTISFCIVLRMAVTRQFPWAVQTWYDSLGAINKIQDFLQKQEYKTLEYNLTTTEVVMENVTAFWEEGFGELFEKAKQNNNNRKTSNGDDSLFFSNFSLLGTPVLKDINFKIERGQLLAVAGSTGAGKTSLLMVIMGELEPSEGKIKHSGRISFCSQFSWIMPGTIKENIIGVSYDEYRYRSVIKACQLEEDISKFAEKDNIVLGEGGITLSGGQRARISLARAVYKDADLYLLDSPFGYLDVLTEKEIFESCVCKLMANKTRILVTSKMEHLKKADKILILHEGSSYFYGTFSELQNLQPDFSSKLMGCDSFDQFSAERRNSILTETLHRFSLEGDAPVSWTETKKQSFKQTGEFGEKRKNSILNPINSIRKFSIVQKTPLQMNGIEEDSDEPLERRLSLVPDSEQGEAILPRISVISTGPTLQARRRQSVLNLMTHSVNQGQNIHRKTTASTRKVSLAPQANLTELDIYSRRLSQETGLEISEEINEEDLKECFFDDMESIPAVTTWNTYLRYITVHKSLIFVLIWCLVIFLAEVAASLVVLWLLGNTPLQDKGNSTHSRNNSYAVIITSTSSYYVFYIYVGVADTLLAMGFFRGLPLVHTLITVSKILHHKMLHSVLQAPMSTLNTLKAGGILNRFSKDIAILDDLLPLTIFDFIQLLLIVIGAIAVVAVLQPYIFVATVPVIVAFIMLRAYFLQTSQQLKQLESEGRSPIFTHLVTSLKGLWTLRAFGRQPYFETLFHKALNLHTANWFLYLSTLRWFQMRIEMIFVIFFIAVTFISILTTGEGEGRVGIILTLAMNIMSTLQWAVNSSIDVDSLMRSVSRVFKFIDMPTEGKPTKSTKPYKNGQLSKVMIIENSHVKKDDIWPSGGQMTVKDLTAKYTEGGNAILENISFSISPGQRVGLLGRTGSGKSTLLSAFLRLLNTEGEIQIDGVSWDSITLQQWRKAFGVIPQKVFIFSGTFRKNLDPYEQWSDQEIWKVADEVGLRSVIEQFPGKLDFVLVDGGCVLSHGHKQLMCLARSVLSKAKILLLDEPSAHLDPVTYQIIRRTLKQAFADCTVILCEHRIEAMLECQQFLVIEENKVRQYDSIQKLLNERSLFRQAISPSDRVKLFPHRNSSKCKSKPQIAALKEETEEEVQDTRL
TEST SUMMARY: CFTR cell surface levels using HRP-tagged ΔF508-CFTR expressing CFBE cells, intrinsic corrector capacity
Type: cell-based
REPORTED CONDITIONS: HRP-tagged ΔF508-CFTR CFBE41o- cells, compounds alone (intrinsic corrector capacity), 20 hours at 33° C.; positive control 3 μM corrector
From the text: Measuring CFTR Cell Surface Levels Using HRP-Tagged AF508-CFTR Expressing CFBE Cells The HRP-tagged AF508-CFTR cell assay measures the expression of CFTR-ΔF508 at the plasma membrane. […] When HRP-tagged AF508-CFTR is present at the plasma membrane, the HRP enzyme activity can be measured. The amount of CFTR-ΔF508 that can be rescued to the plasma membrane is correlated with the amount of functional enzyme that can be measured. […]
MEASUREMENT KIND: % Activation (%)
Give the quantity in %, number only.

Cc1cccc(-n2nc(C(C)C)c3c(N4CCC(CF)CC4)cc(C(=O)O)nc32)c1 [compound 348] : 217.2

Asked: What % Activation value was documented for this molecule, CC(C)c1nn(C2CCCC2)c2nc(C(=O)O)cc(-c3ccc(N4CCOCC4)nc3)c12 [compound 77] ?
Given back: 139.5

Asked: Using the record for CO[C@@H]1CCC[C@@H](n2nc(C(C)C)c3c(-c4ccc(N5CCOCC5)cc4)cc(C(=O)O)nc32)C1 [compound 214] , report its % Activation.
Given back: 154

Asked: Suppose we examine the molecule Cc1nn(-c2ccccc2)c2nc(C(=O)O)cc(N3CCOCC3)c12 [compound 118] ; what % Activation value has been reported?
Given back: 26.575

Asked: Find the recorded % Activation belonging to Cc1nn(-c2ccccc2)c2nc(C(=O)O)cc(-c3ccc(N4CCOCC4)cc3Cl)c12 [compound 26] and report it.
Given back: 83.24

Asked: Requested read-out: % Activation. Entry: Cc1nn(-c2ccccc2)c2nc(C(=O)O)cc(N3CCN4C(=O)OCC4C3)c12 (stereo not shown) [compound 301]
Given back: 12.64

Asked: Look up % Activation: Cc1nn(-c2ccccc2)c2nc(C(=O)O)cc(OCCN3CCS(=O)(=O)CC3)c12 [compound 334]
Given back: 36.645
